Provenance of the data: PubChem BioAssay (NCATS)

assay_details: qHTS of pediatric cancer cell lines to identify multiple opportunities for drug repurposing: Confirmatory screen for LAN-5 cells (AID 1347113); note: nearly all actives have a fitted effect of over 65% in size
condition_notes: LAN-5 neuroblastoma cell viability; series mostly up to 45.9 µM
Records with an inconclusive call do not appear. The source made the active and inactive calls. Calls come from the whole dose curve; as a rule, active = well fitted cell-killing curve with a large enough effect; inconclusive = small, poorly fitted or top-dose-only effect, or effect the other way; inactive = no such curve, though single readings can be large or run the other way.
# valid calls are True for active, False for inactive; nothing else

# example entries with known answers
ClC1=C(Cl)C2(Cl)C(CBr)CC1(Cl)C2(Cl)Cl (configuration not stated)
False
Cc1ccc([N+](=O)[O-])[c]2c1[O][Hg]2
True
COc1ccc2c(C(=O)c3ccc(Cl)cc3)c(C)n(CC(=O)O)c2c1
False

Attention now turns to another entry.
### Prompt Outcome? "C[C@@H]1O[C@@H](O[C@@H]2C=C3CC[C@@H]4[C@H](CC[C@]5(C)[C@@H](c6ccc(=O)oc6)CC[C@]45O)[C@@]3(C)CC2)[C@H](O)[C@H](O)[C@H]1O"
### Response True
